# Tested on: murine neural precursor cells (neurosphere cultures)
# Protocol: HTS of LOPAC library against secondary neurosphere cultures, MTT proliferation assay at 3 μM, day 7 (z score, P value)
# Format: cell-based, mouse
# Experimental Parameters: LOPAC primary screen, neurosphere MTT proliferation, 3 μM, day 7
Where a name gives a salt, the structure may show the parent alone.
I would appreciate it if you labelled entries Met when Z score is -0.08 or higher, otherwise Not met.

Solved entries:
| Compound | Classification |
| --- | --- |
| CC(C)(C)NCC(O)c1ccc(O)c(CO)c1 (stereo not shown) [Salbutamol] | Not met |
| COc1ccc2c(c1)[C@]13CCCC[C@@H]1[C@H](C2)N(C)CC3 | Not met |
| CCCC(C(=O)OCCN(CC)CC)(c1ccccc1)c1ccccc1.Cl [SKF-525A hydrochloride] | Not met |
| Fc1ccc(C(OCCCc2c[nH]cn2)c2ccc(F)cc2)cc1 | Met |
| Cc1nc2c([nH]1)c(=O)n(C)c(=O)n2Cc1ccco1 [Furafylline] | Met |
| CN(C)CCC(c1ccc(Cl)cc1)c1ccccn1.O=C(O)/C=C\C(=O)O (single isomer, unassigned; (+)) [(+)-Chlorpheniramine maleate] | Not met |
| O=c1[nH]c2ccccc2n1CCCN1CCN(C(c2ccccc2)c2ccccc2)CC1 [Oxatomide] | Met |
| CC(=O)Oc1cc(C(C)C)c(OCCN(C)C)cc1C [Moxisylyte hydrochloride] | Not met |

**Query** # check: Z score of CC1CCCC=CC2CC(O)CC2C(O)C=CC(=O)O1 (stereo not shown) is greater than or equal to -0.08
**Result** Not met

**Query** Identify whether the reported Z score of the following compound is -0.08 or greater: CC(=O)NNC(=O)N1Cc2ccccc2Oc2ccc(Cl)cc21 [SC 19220]
**Result** Not met

**Query** State whether the measured Z score reaches -0.08, counting equality as reaching it, for CC(=O)[C@@]1(O)CC[C@H]2[C@@H]3CCC4=CC(=O)CC[C@]4(C)[C@H]3CC[C@@]21C [17alpha-hydroxyprogesterone]
**Result** Not met

**Query** Form field: Z score at least -0.08? Entry: CC1Cc2cc3c(cc2C(c2ccc(N)cc2)=NN1)OCO3 (stereo not shown) [GYKI 52895]
**Result** Not met

**Query** Is the recorded value of Z score equal to or greater than -0.08 for this compound? CC1=C(/C=C/C(C)=C/C=C/C(C)=C\C(=O)O)C(C)(C)CCC1 [13-cis-retinoic acid]
**Result** Not met

---

# Tested on: murine neural precursor cells (neurosphere cultures)
# Protocol: HTS of LOPAC library against secondary neurosphere cultures, MTT proliferation assay at 3 μM, day 7 (z score, P value)
# Format: cell-based, mouse
# Experimental Parameters: 168 h, 3 µM
Please respond with t when measured Z score is strictly beneath -0.2, and with f in all other cases.

Examples with answers:
| Compound | Classification |
| --- | --- |
| O=C1c2c(O)cc(O)cc2O[C@H](c2ccc(O)c(O)c2)[C@H]1O (racemic) [(±)-Taxifolin] | f |
| CC1CNCCN1S(=O)(=O)c1cccc2cnccc12.Cl.Cl (stereo not drawn) | f |
| Cc1cc(O)c2c(c1)C(=O)c1cc(O)cc(O)c1C2=O | t |
| CN1CCN(CCCN2c3ccccc3Sc3ccc(Cl)cc32)CC1 [Prochlorperazine dimaleate] | t |

**Query** Given N=C(N)NC(CCC(=O)O)C(=O)O (stereo not drawn) , is recorded Z score strictly lower than -0.2?
**Result** t

**Query** # check: Z score < -0.2 for CNc1ncnc2c1ncn2[C@@H]1O[C@H](CO)[C@@H](O)[C@H]1O
**Result** f

**Query** Is Z score strictly under -0.2 for the entry FC(F)(F)c1ccccc1-n1ccnc1 [1-[2-(Trifluoromethyl)phenyl]imidazole] ?
**Result** f

**Query** # check: Z score < -0.2 for O=C(O)[C@@H]1C[C@H](C(=O)O)N1 [cis-Azetidine-2,4-dicarboxylic acid]
**Result** t

**Query** Hello, is Z score of the following compound strictly smaller than -0.2? N=C(N)NC(=N)Nc1ccccc1 [1-Phenylbiguanide]
**Result** t
